Tested on: MIWI (PIWIL1) piRISC loaded with Kctd7 piRNA (30 nt);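 also: 1 nM active piRISC with 0.1 nM target library at 33 °C single turnover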
assay_info: pre-steady-state target cleavage rate (min^-1); MIWI and MILI are mouse PIWI proteins and EfPiwi is from a freshwater sponge; tags in brackets are library labels; higher = faster piRNA-guided slicing of the target;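 also: 1 nM active piRISC with 0.1 nM target library at 33 °C single turnover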
test_settings: guide: Kctd7 piRNA 5'p-UGUUAAUCUCUCAGAGAAGGUGACAGUGAU; auxiliary factor: 500 nM mouse GTSF1
Whole data set: some 6,600 sequences, median “pre-steady-state target cleavage rate” near 0.07, cut for the highest 2% near 0.72. The entries come from a sample that favours the highest values as a whole.
Threshold check on pre-steady-state target cleavage rate: at or above 0.4 gives t, strictly below gives f.

Request: # check: pre-steady-state target cleavage rate of "UACACUGUCACCUUCUCAGAGAGAAUAACA" is greater than or equal to 0.4
Response: f

Request: # check: pre-steady-state target cleavage rate of UACACUGUCACCUUCUCUGAGAGAUUAACG [g2:g28:cont:t1G] is greater than or equal to 0.4
Response: t

Request: # check: pre-steady-state target cleavage rate of "AUCACUGUCACCUUCUCUGAGAGAGUUAACA" is greater than or equal to 0.4
Response: t
